System tested: CK2A1 (CK2α/β) (Homo sapiens, UniProt P68400)
Sequence (P68400 whole entry, species assumed): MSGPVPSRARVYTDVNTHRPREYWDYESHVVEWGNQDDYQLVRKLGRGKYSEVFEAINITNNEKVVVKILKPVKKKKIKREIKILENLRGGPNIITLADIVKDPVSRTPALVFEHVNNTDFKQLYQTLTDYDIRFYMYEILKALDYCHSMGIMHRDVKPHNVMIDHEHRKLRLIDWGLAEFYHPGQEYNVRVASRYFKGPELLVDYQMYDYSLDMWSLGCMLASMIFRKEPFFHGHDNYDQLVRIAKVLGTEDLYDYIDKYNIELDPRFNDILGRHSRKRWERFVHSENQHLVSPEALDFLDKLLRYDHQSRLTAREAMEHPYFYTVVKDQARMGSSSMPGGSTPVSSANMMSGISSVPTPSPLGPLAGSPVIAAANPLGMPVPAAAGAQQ
Sequence (P67870 whole entry partner, species assumed): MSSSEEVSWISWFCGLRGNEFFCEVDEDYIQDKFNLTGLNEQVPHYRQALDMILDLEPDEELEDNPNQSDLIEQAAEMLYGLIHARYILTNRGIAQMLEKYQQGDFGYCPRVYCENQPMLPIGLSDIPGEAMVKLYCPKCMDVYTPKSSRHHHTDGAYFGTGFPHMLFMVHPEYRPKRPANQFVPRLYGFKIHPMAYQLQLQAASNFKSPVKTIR
Assay summary: CK2 kinase assay, CK2A1 (CK2α/β)
Assay type: biochemical
Measurement context: CK2A1 (CK2α/β) (IC50, nM), Table A
Measurement name: IC50 (nM)

[
  {
    "Smiles str": "CCNc1nc(Nc2cc(C#N)cc(N3CC[C@@H](NC(=O)OC)[C@H](OC(=O)Cc4ccc(OP(=O)(O)O)cc4)C3)c2Cl)nn2c(C#N)cnc12",
    "Value units": "nM",
    "Endpoint value": 3
  }
]

###

Listed molecules paired with reported IC50
System tested: CK2A1 (CK2α/β) (Homo sapiens, UniProt P68400)
Assay summary: CK2 kinase assay, CK2A1 (CK2α/β)
Format: biochemical
Measurement context: Table A; read-out: CK2A1 (CK2α/β) (IC50)
Measurement name: IC50 (nM)

[
  {
    "Molecule": "N#Cc1cc(Nc2nc(NC3CC3)c3ncc(C#N)n3n2)c(Cl)cc1NC1CCNCC1",
    "Endpoint value": 0.68
  },
  {
    "Molecule": "CN1CCN(C2CN(c3cc(C(F)F)cc(Nc4nc(NC5CC5)c5ncc(C#N)n5n4)c3Cl)C2)CC1",
    "Endpoint value": 0.86
  },
  {
    "Molecule": "CC(C)(C)[C@@H](N)C(=O)N1CC(N2CCN(c3cc(C#N)cc(Nc4nc(NC5CC5)c5ncc(C#N)n5n4)c3Cl)CC2)C1",
    "Endpoint value": 3.27
  },
  {
    "Molecule": "COCCC(=O)N1CCN(c2cc(C#N)cc(Nc3nc(NC4CC4)c4ncc(C#N)n4n3)c2Cl)CC1",
    "Endpoint value": 0.76
  },
  {
    "Molecule": "CCNc1nc(Nc2cc(C#N)cc(N3C[C@@H](C)[C@@H](NC(=O)OC)C3)c2Cl)nn2c(C#N)cnc12",
    "Endpoint value": 3.97
  },
  {
    "Molecule": "COC(=O)N[C@H]1CCN(c2cc(C#N)cc(Nc3nc(NC4CC4)c4ncc(C#N)n4n3)c2Cl)C[C@@H]1NC1COC1 (single isomer, unassigned)",
    "Endpoint value": 1.12
  },
  {
    "Molecule": "CO[C@@H]1CN(c2cc(C#N)cc(Nc3nc(NC4CC4)c4ncc(C#N)n4n3)c2Cl)C[C@@H]1NC(=O)OC1COC1",
    "Endpoint value": 0.59
  }
]

###

System tested: CK2A1 (CK2α/β) (Homo sapiens, UniProt P68400)
Assay summary: CK2 kinase assay, CK2A1 (CK2α/β)
Format: biochemical
Measurement context: Table A; read-out: CK2A1 (CK2α/β) (IC50)
With a cut-off of 700 pM, any IC50 strictly below it is called Fulfilled; any IC50 meeting it or above is called Not fulfilled.

[
  {
    "Compound": "N#Cc1cc(Nc2nc(NC3CC3)c3ncc(C#N)n3n2)c(Cl)c(N2CCN(CC3CCCO3)CC2)c1 (stereo not shown)",
    "Group": "Fulfilled"
  },
  {
    "Compound": "N#Cc1cc(Nc2nc(NC3CC3)c3ncc(C#N)n3n2)c(Cl)c(C(O)CO)c1 (racemic)",
    "Group": "Fulfilled"
  },
  {
    "Compound": "COCCN1CCN(c2cc(C#N)cc(Nc3nc(NC4CC4)c4ncc(C#N)n4n3)c2Cl)CC1",
    "Group": "Not fulfilled"
  },
  {
    "Compound": "N#Cc1cc(Nc2nc(NC3CC3)c3ncc(C#N)n3n2)c(Cl)c(C2(O)CCNC2)c1 (stereo not shown)",
    "Group": "Not fulfilled"
  },
  {
    "Compound": "CC(=O)N1CCC[C@H]1C(=O)N1CCN(c2cc(C#N)cc(Nc3nc(NC4CC4)c4ncc(C#N)n4n3)c2Cl)CC1",
    "Group": "Fulfilled"
  },
  {
    "Compound": "N#Cc1cc(CN2CCCC3(COC3)C2)c(Cl)c(Nc2nc(NC3CC3)c3ncc(C#N)n3n2)c1",
    "Group": "Not fulfilled"
  }
]

###

System tested: CK2A1 (CK2α/β) (Homo sapiens, UniProt P68400)
Assay summary: CK2 kinase assay, CK2A1 (CK2α/β)
Type: biochemical
Measurement context: Table A; read-out: CK2A1 (CK2α/β) (IC50)
Lab note - cut at 1 nM for IC50: T if strictly below, F if not.

[
  {
    "Compound": "N#Cc1cc(Nc2nc(NC3CC3)c3ncc(C#N)n3n2)c(Cl)c(N2CCN(C(=O)CC3CCOCC3)CC2)c1 [Example 95]",
    "Group": "T"
  },
  {
    "Compound": "CCNc1nc(Nc2cc(C#N)cc(N3CC[C@@H](NC(=O)OC)[C@H](OC(=O)[C@H](C)OP(=O)(O)O)C3)c2Cl)nn2c(C#N)cnc12 [Example 340]",
    "Group": "F"
  },
  {
    "Compound": "CC(=O)NN1CCN(c2cc(C#N)cc(Nc3nc(NC4CC4)c4ncc(C#N)n4n3)c2Cl)CC1 [Example 789]",
    "Group": "T"
  },
  {
    "Compound": "N#Cc1cc(Nc2nc(NC3CC3)c3ncc(C#N)n3n2)c(Cl)c(N2CCN(C3CN(CC(O)CF)C3)CC2)c1 (stereo not shown) [Example 614]",
    "Group": "F"
  },
  {
    "Compound": "CC(O)C1(N2CCN(c3cc(C(F)F)cc(Nc4nc(NC5CC5)c5ncc(C#N)n5n4)c3Cl)CC2)COC1 (stereo not shown) [Example 271]",
    "Group": "F"
  },
  {
    "Compound": "CC(=O)NCC1CN(c2cc(C#N)cc(Nc3nc(NC4CC4)c4ncc(C#N)n4n3)c2Cl)CCO1 (stereo not shown) [Example 712]",
    "Group": "F"
  },
  {
    "Compound": "CC(C)(O)C1CCN(CCCc2cc(Cl)c(Nc3nc(NC4CC4)c4ncc(C#N)n4n3)cc2C#N)CC1 [Example 568]",
    "Group": "F"
  },
  {
    "Compound": "N#Cc1cc(Nc2nc(NC3CC3)c3ncc(C#N)n3n2)c(Cl)c(N2CCC3(CC2)CN(CC(O)CF)C3)c1 (racemic) [Example 796]",
    "Group": "F"
  },
  {
    "Compound": "N#Cc1cc(Nc2nc(NC3CC3)c3ncc(C#N)n3n2)c(Cl)c(N2CCC3C(CCN3C3COC3)C2)c1 (stereo not shown) [Example 444]",
    "Group": "T"
  },
  {
    "Compound": "CC(CCc1cc(Cl)c(Nc2nc(NC3CC3)c3ncc(C#N)n3n2)cc1C#N)N1CCOCC1 (stereo not shown) [Example 720]",
    "Group": "F"
  },
  {
    "Compound": "CN1CCCC12CCN(c1cc(C#N)cc(Nc3nc(NC4CC4)c4ncc(C#N)n4n3)c1Cl)C2 (racemic) [Example 25]",
    "Group": "T"
  },
  {
    "Compound": "CS(=O)(=O)CC(=O)N1CC(N2CCN(c3cc(C#N)cc(Nc4nc(NC5CC5)c5ncc(C#N)n5n4)c3Cl)CC2)C1 [Example 486]",
    "Group": "F"
  },
  {
    "Compound": "CCNc1nc(Nc2cc(C#N)cc(C3CCN(C4CN(S(C)(=O)=O)C4)CC3)c2Cl)nn2c(C#N)cnc12 [Example 355]",
    "Group": "F"
  },
  {
    "Compound": "CO[C@@H]1CN(c2cc(C#N)cc(Nc3nc(NC4CC4)c4ncc(C#N)n4n3)c2Cl)CC[C@H]1N (racemic) [Example 188]",
    "Group": "F"
  }
]

###

System tested: CK2A1 (CK2α/β) (Homo sapiens, UniProt P68400)
Assay summary: CK2 kinase assay, CK2A1 (CK2α/β)
Assay type: biochemical
Measurement context: Table A; read-out: CK2A1 (CK2α/β) (IC50)
Counter-ions that a name gives are not always drawn.
Measurement name: log10 of IC50 (log10 of the value in nM)

[
  {
    "Compound": "N#Cc1cc(Nc2nc(NC3CC3)c3ncc(C#N)n3n2)c(Cl)c(C(F)C2CCNCC2)c1 (stereo not shown)",
    "System tested": "CK2A1 (CK2α/β) (Homo sapiens, UniProt P68400)",
    "log10 of IC50": -0.32
  },
  {
    "Compound": "COC(=O)N[C@H]1CCN(c2cc(C#N)cc(Nc3nc(NC4CC4)c4ncc(C#N)n4n3)c2Cl)C[C@@H]1OC(=O)CN",
    "System tested": "CK2A1 (CK2α/β) (Homo sapiens, UniProt P68400)",
    "log10 of IC50": 0.78
  },
  {
    "Compound": "N#Cc1cc(Nc2nc(NC3CC3)c3ncc(C#N)n3n2)c(F)c(C2CCN(C3COC3)CC2)c1",
    "System tested": "CK2A1 (CK2α/β) (Homo sapiens, UniProt P68400)",
    "log10 of IC50": -0.37
  },
  {
    "Compound": "CN(CCN)c1cc(C#N)cc(Nc2nc(NC3CC3)c3ncc(C#N)n3n2)c1Cl",
    "System tested": "CK2A1 (CK2α/β) (Homo sapiens, UniProt P68400)",
    "log10 of IC50": -0.20
  },
  {
    "Compound": "N#Cc1cc(Nc2nc(NC3CC3)c3ncc(C#N)n3n2)c(Cl)c(N2CCN([C@@H]3COC[C@H]3O)CC2)c1 (racemic)",
    "System tested": "CK2A1 (CK2α/β) (Homo sapiens, UniProt P68400)",
    "log10 of IC50": -0.23
  },
  {
    "Compound": "CCNc1nc(Nc2cc(C#N)cc(N3CCC4(CCN(C(C)=O)C4)CC3)c2Cl)nn2c(C#N)cnc12",
    "System tested": "CK2A1 (CK2α/β) (Homo sapiens, UniProt P68400)",
    "log10 of IC50": 0.22
  },
  {
    "Compound": "N#Cc1cc(Nc2nc(NC3CC3)c3ncc(C#N)n3n2)c(Cl)c(C(F)(F)CO)c1",
    "System tested": "CK2A1 (CK2α/β) (Homo sapiens, UniProt P68400)",
    "log10 of IC50": -0.42
  },
  {
    "Compound": "COCC(C)N1CCN(c2cc(C#N)cc(Nc3nc(NC4CC4)c4ncc(C#N)n4n3)c2Cl)CC1 (racemic)",
    "System tested": "CK2A1 (CK2α/β) (Homo sapiens, UniProt P68400)",
    "log10 of IC50": -0.15
  },
  {
    "Compound": "N#Cc1cc(Nc2nc(NC3CC3)c3ncc(C#N)n3n2)c(Cl)c(N2CCN(C3CN(C(=O)[C@@H]4C[C@H](F)CN4)C3)CC2)c1",
    "System tested": "CK2A1 (CK2α/β) (Homo sapiens, UniProt P68400)",
    "log10 of IC50": 0.56
  },
  {
    "Compound": "N#Cc1cc(Nc2nc(NC3CC3)c3ncc(C#N)n3n2)c(Cl)c(C2CCN(C3CN(C(=O)C(F)(F)F)C3)CC2)c1",
    "System tested": "CK2A1 (CK2α/β) (Homo sapiens, UniProt P68400)",
    "log10 of IC50": -0.10
  },
  {
    "Compound": "CC1(O)CN(C2CN(c3cc(C#N)cc(Nc4nc(NC5CC5)c5ncc(C#N)n5n4)c3Cl)C2)C1",
    "System tested": "CK2A1 (CK2α/β) (Homo sapiens, UniProt P68400)",
    "log10 of IC50": -0.17
  },
  {
    "Compound": "CCN1CCN(c2cc(C#N)cc(Nc3nc(NC4CC4)c4ncc(C#N)n4n3)c2Cl)C(=O)C1",
    "System tested": "CK2A1 (CK2α/β) (Homo sapiens, UniProt P68400)",
    "log10 of IC50": 0.00
  },
  {
    "Compound": "COC(=O)Nc1cc(Nc2nc(NC3CC3)c3ncc(C#N)n3n2)c(Cl)c(N2CC(N3CCC(OC)CC3)C2)c1",
    "System tested": "CK2A1 (CK2α/β) (Homo sapiens, UniProt P68400)",
    "log10 of IC50": -0.06
  },
  {
    "Compound": "N#Cc1cc(CN2CCN(C3COC3)CC2)c(Cl)c(Nc2nc(NC3CC3)c3ncc(C#N)n3n2)c1 [Example 403, HCl salt]",
    "System tested": "CK2A1 (CK2α/β) (Homo sapiens, UniProt P68400)",
    "log10 of IC50": -0.16
  },
  {
    "Compound": "N#Cc1cc(Nc2nc(NC3CC3)c3ncc(C#N)n3n2)c(Cl)c(N2CCN3C[C@@H](F)C[C@H]3C2)c1 (racemic)",
    "System tested": "CK2A1 (CK2α/β) (Homo sapiens, UniProt P68400)",
    "log10 of IC50": -0.08
  },
  {
    "Compound": "N#Cc1cc(Nc2nc(NC3CC3)c3ncc(C#N)n3n2)c(Cl)c(N2CCC[C@@H](NC3COC3)C2)c1",
    "System tested": "CK2A1 (CK2α/β) (Homo sapiens, UniProt P68400)",
    "log10 of IC50": 0.41
  },
  {
    "Compound": "N#Cc1cc(Nc2nc(NC3CC3)c3ncc(C#N)n3n2)c(Cl)c(C(O)C2CN(C3COC3)C2)c1 (stereo not shown)",
    "System tested": "CK2A1 (CK2α/β) (Homo sapiens, UniProt P68400)",
    "log10 of IC50": 0.83
  },
  {
    "Compound": "CN(CCNC1COC1)c1cc(C#N)cc(Nc2nc(NC3CC3)c3ncc(C#N)n3n2)c1Cl",
    "System tested": "CK2A1 (CK2α/β) (Homo sapiens, UniProt P68400)",
    "log10 of IC50": 0.39
  },
  {
    "Compound": "CCNc1nc(Nc2cc(C#N)cc(C3CN(C4COC4)C3)c2Cl)nn2c(C#N)cnc12",
    "System tested": "CK2A1 (CK2α/β) (Homo sapiens, UniProt P68400)",
    "log10 of IC50": 0.20
  }
]
